Biological target: Kappa-type opioid receptor (Cavia porcellus, UniProt P41144)
Sequence (P41144 whole entry): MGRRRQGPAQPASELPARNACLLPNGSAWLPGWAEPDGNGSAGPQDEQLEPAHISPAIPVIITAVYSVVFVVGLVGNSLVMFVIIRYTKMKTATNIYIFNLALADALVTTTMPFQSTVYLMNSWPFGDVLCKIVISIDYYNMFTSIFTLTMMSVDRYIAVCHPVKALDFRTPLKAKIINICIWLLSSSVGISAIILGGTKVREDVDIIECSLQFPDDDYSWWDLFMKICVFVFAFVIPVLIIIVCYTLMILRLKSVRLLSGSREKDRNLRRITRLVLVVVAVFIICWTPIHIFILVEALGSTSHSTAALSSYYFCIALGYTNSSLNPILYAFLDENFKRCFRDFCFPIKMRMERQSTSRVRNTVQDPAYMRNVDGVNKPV
pIC50: −log10 of the molar value.
Measure: pIC50

CC(C)C[C@@H]1CN2C(=NC[C@@H]2C2CCCCC2)N1CC1CCC(C)CC1 (stereo partly specified)    6.00
COc1ccc(C[C@H]2CN3C(=NC[C@@H]3C)N2CCC23CC4CC(CC(C4)C2)C3)cc1    5.81
C1CCC([C@H]2CN3C(=NC[C@@H]3C3CCCCC3)N2CCC23CC4CC(CC(C4)C2)C3)CC1    5.83

* * *

As an illustration, consider measured IC50 for molecules on Mu-type opioid receptor (Homo sapiens, UniProt P35372).
Sequence (P35372 whole entry): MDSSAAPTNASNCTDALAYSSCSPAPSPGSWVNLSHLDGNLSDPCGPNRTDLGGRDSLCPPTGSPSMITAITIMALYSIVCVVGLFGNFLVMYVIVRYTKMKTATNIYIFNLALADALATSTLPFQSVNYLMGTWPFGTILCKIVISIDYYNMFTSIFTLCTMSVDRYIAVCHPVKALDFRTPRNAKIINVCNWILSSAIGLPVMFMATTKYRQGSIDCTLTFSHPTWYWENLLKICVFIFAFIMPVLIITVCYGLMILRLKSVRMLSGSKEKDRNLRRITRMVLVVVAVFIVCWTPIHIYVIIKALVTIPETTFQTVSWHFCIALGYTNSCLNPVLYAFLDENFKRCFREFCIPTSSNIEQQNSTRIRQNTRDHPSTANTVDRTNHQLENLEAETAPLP
Measure: IC50 (µM)

COc1ccc(C[C@H]2CN3C(=NC[C@@H]3C)N2CCCC2CCCCC2)cc1    0.421
COc1ccc(C[C@@H]2CN3C(=NC[C@@H]3C)N2CCC2CC3CCC2C3)cc1 (some centres not stated)    20.3

* * *

Entries and their pIC50
Molecular target: Delta-type opioid receptor (Homo sapiens, UniProt P41143)
Sequence (P41143 whole entry): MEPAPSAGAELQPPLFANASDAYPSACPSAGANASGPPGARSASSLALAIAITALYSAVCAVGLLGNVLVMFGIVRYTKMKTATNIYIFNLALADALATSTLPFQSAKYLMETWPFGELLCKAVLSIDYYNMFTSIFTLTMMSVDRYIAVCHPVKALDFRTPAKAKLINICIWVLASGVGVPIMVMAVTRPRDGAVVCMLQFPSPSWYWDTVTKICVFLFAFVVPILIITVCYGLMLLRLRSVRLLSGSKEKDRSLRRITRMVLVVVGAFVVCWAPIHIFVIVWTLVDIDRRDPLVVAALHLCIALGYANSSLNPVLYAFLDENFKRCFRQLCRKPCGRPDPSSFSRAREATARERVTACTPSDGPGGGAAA
Assay: Binding affinity at delta opioid receptor
pIC50: −log10 of the molar value.
Measure: pIC50

COc1ccc(C[C@H]2CN3C(=NC[C@@H]3C)N2CCCC2CCCCC2)cc1    5.26
COc1ccc(C[C@@H]2CN3C(=NC[C@@H]3C)N2CCC2CC3CCC2C3)cc1 (some centres not stated)    5.68

* * *

Target: Kappa-type opioid receptor (Cavia porcellus)
pIC50: −log10 of the molar value.
Criterion: pIC50 meeting or surpassing 6. Met: true. Not met: false.

C1CCC([C@H]2CN3C(=NC[C@H]3C3CCCCC3)N2CCC2CC3CCC2C3)CC1 (some centres undefined)    true
CC(C)C[C@@H]1CN2C(=NC[C@@H]2C)N1CCC1CC2CCC1C2 (some centres undefined)    false
C1CCC([C@H]2CN3C(=NC[C@@H]3C3CCCCC3)N2CCC2CC3CCC2C3)CC1 (some centres undefined)    true
CCOc1ccc(C[C@@H]2CN3C(=NC[C@@H]3C)N2CCC2CC3CCC2C3)cc1 (some centres undefined)    true
COc1ccc(C[C@@H]2CN3C(=NC[C@H]3CC3CCCCC3)N2CCC23CC4CC(CC(C4)C2)C3)cc1    true
CC(C)C[C@@H]1CN2C(=NC[C@@H]2C)N1CCC12CC3CC(CC(C3)C1)C2    false
COc1ccc(C[C@@H]2CN3C(=NC[C@H]3C3CCCCC3)N2CCC23CC4CC(CC(C4)C2)C3)cc1    false
CCCC[C@@H]1CN=C2N(CCC3CC4CCC3C4)[C@H](Cc3ccc(OC)cc3)CN21 (some centres undefined)    true

* * *

pIC50: −log10 of the molar value.
As an illustration, consider measured pIC50 for molecules on Kappa-type opioid receptor (Cavia porcellus, UniProt P41144).
Measure: pIC50

COc1ccc(C[C@H]2CN3C(=NC[C@@H]3C(C)C)N2CC2CCCC2)cc1    < 5.00
CCC[C@H]1CN=C2N(CC3CCC3)[C@@H](Cc3ccc(OC)cc3)CN21    < 5.00
C[C@H]1CN2C(=NC[C@@H]2C)N1CCC12CC3CC(CC(C3)C1)C2    < 5.00

Measured values drawn from ChEMBL document CHEMBL1150369 for this set.
